Where do these numbers come from? They come from the supplement of paper PMC10883282.

I'd appreciate it if you could supply relative viability values for the items below.
Test system: SK-ES-1
method: relative viability vs DMSO control (72 h) (fraction); higher = more viable cells
test-conditions: 0.00017 µM
Number only, no unit.

**Q:** Please tell me: relative viability of `O=C(Nc1cnn2ccc(N3CCC[C@@H]3c3cc(F)ccc3F)nc12)N1CC[C@H](O)C1` , system SK-ES-1?
**A:** 1.01

**Q:** Next entry: `Nc1cc(C(F)(F)F)c(-c2cc(N3CCOCC3)nc(N3CCOCC3)n2)cn1`
**A:** 1.03

**Q:** Same lookup for `Cn1cnc2c(F)c(Nc3ccc(Br)cc3F)c(C(=O)NOCCO)cc21` , please.
**A:** 1.03

**Q:** One more compound: `Cc1ccc(NC(=O)c2ccc(CN3CCN(C)CC3)cc2)cc1Nc1nc(-c2cccnc2)cs1`
**A:** 1

----------
Please provide measured relative viability for the entries that follow.
System: SW684
method: relative viability vs DMSO control (72 h) (fraction); higher = more viable cells
test-conditions: 0.00457 µM
Give the figure by itself; no unit, no explanation.

**Q:** Consider the compound shown here: Cn1cnc2c(F)c(Nc3ccc(Br)cc3F)c(C(=O)NOCCO)cc21 [Binimetinib] What is its recorded relative viability?
**A:** 1.11

**Q:** Subsequent entry: CO[C@H]1C[C@@H]2CC[C@@H](C)[C@@](O)(O2)C(=O)C(=O)N2CCCC[C@H]2C(=O)O[C@H]([C@H](C)C[C@@H]2CC[C@@H](OP(C)(C)=O)[C@H](OC)C2)CC(=O)[C@H](C)/C=C(\C)[C@@H](O)[C@@H](OC)C(=O)[C@H](C)C[C@H](C)/C=C/C=C/C=C/1C [Ridaforolimus]
**A:** 0.971

**Q:** What do you have for CC[C@H](Nc1ncnc2[nH]cnc12)c1nc2cccc(F)c2c(=O)n1-c1ccccc1 [Idelalisib] ?
**A:** 1.23

**Q:** Now this one: CCc1cc2c(cc1N1CCC(N3CCOCC3)CC1)C(C)(C)c1[nH]c3cc(C#N)ccc3c1C2=O [Alectinib]
**A:** 1.13

**Q:** Could you do the same for Cc1nc(-c2cn3c(n2)-c2ccc(-c4cnn(C(C)(C)C(N)=O)c4)cc2OCC3)n(C(C)C)n1 [Taselisib] , please?
**A:** 1.01

**Q:** Follow-up item: Cc1ccc(F)c(NC(=O)Nc2ccc(-c3cccc4[nH]nc(N)c34)cc2)c1 [Linifanib]
**A:** 1.18

----------
Tested on: A204
method: relative viability vs DMSO control (72 h) (fraction); higher = more viable cells
test-conditions: 0.04115 µM
Counter-ions that a name gives are not always drawn.
Consider the following compounds; for each one, report its relative viability.
Write the number on its own, no unit after it.

**Q:** Form field - read-out: relative viability; system: A204; submitted item: C=CC(=O)N1CCC[C@@H](n2nc(-c3ccc(Oc4ccccc4)cc3)c3c(N)ncnc32)C1 [Ibrutinib]
**A:** 1.09

**Q:** Repeat for the following compound: CC[C@H](Nc1ncnc2[nH]cnc12)c1nc2cccc(F)c2c(=O)n1-c1ccccc1 [Idelalisib]
**A:** 1.06

**Q:** Try this compound too: Cc1cnc(Nc2ccc(OCCN3CCCC3)cc2)nc1Nc1cccc(S(=O)(=O)NC(C)(C)C)c1 [Fedratinib]
**A:** 1.02

**Q:** Follow-up item: N#CC[C@H](C1CCCC1)n1cc(-c2ncnc3[nH]ccc23)cn1 [Ruxolitinib]
**A:** 1.01

**Q:** Now the compound CC(C)(C)c1cc(NC(=O)Nc2ccc(-c3cn4c(n3)sc3cc(OCCN5CCOCC5)ccc34)cc2)no1 [Quizartinib]
**A:** 0.946

**Q:** Moving on to Cc1nc(-c2cn3c(n2)-c2ccc(-c4cnn(C(C)(C)C(N)=O)c4)cc2OCC3)n(C(C)C)n1 [Taselisib]
**A:** 0.742

**Q:** And what about the compound CCN1CCN(Cc2ccc(Nc3ncc(F)c(-c4cc(F)c5nc(C)n(C(C)C)c5c4)n3)nc2)CC1 [Abemaciclib] ?
**A:** 0.876

**Q:** Can you handle C[C@@H]1CCN(C(=O)CC#N)C[C@@H]1N(C)c1ncnc2[nH]ccc12 [Tofacitinib] next?
**A:** 1.04

**Q:** Now the same for `C[C@@H]1COCCN1c1cc(-c2ccnn2C)c2ccnc(-c3ccn[nH]3)c2n1`
**A:** 0.903

**Q:** Another compound: CN1CCC(COc2cnc(-c3cccc(Cn4nc(-c5cccc(C#N)c5)ccc4=O)c3)nc2)CC1 [Tepotinib]
**A:** 1.05

**Q:** How about COc1cc2/c(=N/c3ccc(Br)cc3F)nc[nH]c2cc1OCC1CCN(C)CC1 [Vandetanib] ?
**A:** 1

**Q:** Quick one: COc1cccc2c1C(=O)c1c(O)c3c(c(O)c1C2=O)C[C@@](O)(C(=O)CO)C[C@@H]3O[C@H]1C[C@H](N)[C@H](O)[C@H](C)O1 [Doxorubicin Hydrochloride]
**A:** 0.56

**Q:** Entry Cc1ccc(F)c(NC(=O)Nc2ccc(-c3cccc4[nH]nc(N)c34)cc2)c1 [Linifanib] please
**A:** 0.973

**Q:** What do we get for CC(C)N1CCN(Cc2cnc(-c3cc(-c4cccc5[nH]ccc45)cc4[nH]ncc34)o2)CC1 [Nemiralisib] ?
**A:** 0.97

**Q:** Also check Cc1ccc(NC(=O)c2ccc(CN3CCN(C)CC3)cc2)cc1Nc1nc(-c2cccnc2)cs1 [Masitinib]
**A:** 0.976

**Q:** Likewise for C[C@]1(O)C[C@@H](c2nc(-c3ccc4ccc(-c5ccccc5)nc4c3)c3c(N)nccn32)C1 [Linsitinib] ?
**A:** 1.03
